- target_entity: hCMV UL130 and UL131A co-expressed in HEK293T cells (human cytomegalovirus, UniProt P16772 1-214)
- Sequence (P16772 whole entry): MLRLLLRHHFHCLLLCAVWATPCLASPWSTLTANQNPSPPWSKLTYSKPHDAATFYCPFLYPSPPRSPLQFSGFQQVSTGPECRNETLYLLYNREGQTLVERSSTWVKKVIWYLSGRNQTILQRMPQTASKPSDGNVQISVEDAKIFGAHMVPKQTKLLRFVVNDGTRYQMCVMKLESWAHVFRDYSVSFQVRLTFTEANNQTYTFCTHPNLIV
- assay_info: cell-based or functional assay
test_readout: 90% Neutralization ARPE (hCMV VR1814) (µg/mL)
The answer is to be given in µg/mL; state only the numeric part.

*Q* Report 90% Neutralization ARPE (hCMV VR1814) for 10F7 (antibody, V domains shown, human IgG mAb; also called 10F7-biotin) VH: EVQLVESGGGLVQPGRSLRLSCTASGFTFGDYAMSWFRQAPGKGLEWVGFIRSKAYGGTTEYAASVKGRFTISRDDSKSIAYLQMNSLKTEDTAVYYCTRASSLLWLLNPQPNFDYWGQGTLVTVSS VL: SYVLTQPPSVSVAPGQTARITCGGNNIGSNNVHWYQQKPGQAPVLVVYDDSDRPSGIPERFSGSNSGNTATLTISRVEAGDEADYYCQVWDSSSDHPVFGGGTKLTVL please.
*A* 0.002

*Q* Report 90% Neutralization ARPE (hCMV VR1814) for 4N10 (antibody, V domains shown, human IgG mAb; also called 4N10-biotin) VH: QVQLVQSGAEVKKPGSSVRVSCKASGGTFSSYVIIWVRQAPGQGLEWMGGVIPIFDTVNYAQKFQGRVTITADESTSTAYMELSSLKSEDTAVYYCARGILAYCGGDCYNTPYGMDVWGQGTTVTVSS VL: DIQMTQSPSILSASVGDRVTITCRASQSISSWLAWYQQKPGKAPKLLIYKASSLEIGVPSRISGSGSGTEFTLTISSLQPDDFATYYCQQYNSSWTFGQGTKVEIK please.
*A* 0.02
